Field: RP-LC retention time. Provide a value for each of the compounds that follow.
Experiment: gradient 5% acetonitrile 3 min, to 50% in 2 min, to 85% in 15 min, held 3 min, 100 µL/min
Conditions: column: Zorbax Extend-C18 2.1 x 50 mm; eluents: water / acetonitrile, 0.1% formic acid
Your answer should be a plain number; it is taken to be in s.

# RP-LC retention time (compound: Cc1cccc2nnc(N3CCCC(C(=O)Nc4ccc5c(c4)OCCO5)C3)n12 (stereo not drawn) ) is 669

# RP-LC retention time (compound: Cc1ccc(C)c(NC(=O)C2CCCN(S(=O)(=O)c3cc(-c4noc(C)n4)cs3)C2)c1 (stereo not drawn) ) is 1060

# RP-LC retention time (compound: COc1ccccc1N1CCN(S(=O)(=O)c2ccc(F)cc2C)CC1 ) is 1010

# RP-LC retention time (compound: O=C(C1CCN(S(=O)(=O)c2cc(-c3noc(C4CC4)n3)cs2)CC1)N1CCCC1 ) is 829

# RP-LC retention time (compound: Cc1ccc(NC(=O)Cn2nc(C(=O)N3CCOCC3)c3ccccc32)c(Br)c1 ) is 825

# RP-LC retention time (compound: CCOC(=O)N1CCN(C(=O)c2cc(-c3ccco3)on2)CC1 ) is 735

# RP-LC retention time (compound: OCCOCCNCc1ccc(-c2ccccc2F)o1 ) is 616

# RP-LC retention time (compound: CCN1CCN(CCNC(=O)C2CCCN(C(=O)c3[nH]c(C)c(C(=O)OC(C)C)c3C)C2)CC1 (stereo not drawn) ) is 596

Cited source: the METLIN SMRT retention time set (Domingo-Almenara et al. 2019)
